assay: Bioavailability in Lewis rat at 5 mg/kg, iv; assay type: ADME, organism-based; details: in vivo
MEASUREMENT_NAME: bioavailability (%)
Numeric answer only, unit % assumed.

Can you look up the measured bioavailability of Fc1ccc(-c2nn3ccccc3c2-c2ccncc2)cc1 [GW434756X] for me? 50

====

This section presents compounds with their documented IC50 values.
molecular target: Mitogen-activated protein kinase 14 (Homo sapiens); experiment: Inhibition of GST-fused p38alpha expressed in Escherichia coli
Sequence (Q16539 whole entry, the tested form may be a part): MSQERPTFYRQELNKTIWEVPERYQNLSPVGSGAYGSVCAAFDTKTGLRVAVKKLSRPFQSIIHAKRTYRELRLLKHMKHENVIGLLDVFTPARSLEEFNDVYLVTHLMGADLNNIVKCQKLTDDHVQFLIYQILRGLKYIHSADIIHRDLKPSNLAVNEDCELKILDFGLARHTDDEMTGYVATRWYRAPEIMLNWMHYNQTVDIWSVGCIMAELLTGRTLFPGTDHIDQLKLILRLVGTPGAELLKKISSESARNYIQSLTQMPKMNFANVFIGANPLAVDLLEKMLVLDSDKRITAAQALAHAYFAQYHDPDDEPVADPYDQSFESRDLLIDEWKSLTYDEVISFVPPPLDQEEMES
# unit: nM | format: bare number

Below, 5 compounds whose answers are already recorded.
# COMPOUND, TESTED_SYSTEM, RECORDED_MEASUREMENT
records = [
    ("CCOc1cccc2c(-c3ccncc3)c(-c3ccc(F)cc3)nn12", "Mitogen-activated protein kinase 14 (Homo sapiens)", 50),
    ("Fc1ccc(-c2nn3cccc(F)c3c2-c2ccncc2)cc1", "Mitogen-activated protein kinase 14 (Homo sapiens)", 240),
    ("Fc1ccc(-c2nn3cc(F)ccc3c2-c2ccncc2)cc1", "Mitogen-activated protein kinase 14 (Homo sapiens)", 160),
    ("Cc1cccc2c(-c3ccncc3)c(-c3ccc(F)cc3)nn12", "Mitogen-activated protein kinase 14 (Homo sapiens)", 150),
    ("Fc1ccc(-c2nn3c(Cl)cccc3c2-c2ccncc2)cc1", "Mitogen-activated protein kinase 14 (Homo sapiens)", 150),
]

Give its IC50 value. Item: "Cc1cccn2nc(-c3ccc(F)cc3)c(-c3ccncc3)c12" 280

Look up IC50: Fc1ccc(-c2nn3ccccc3c2-c2ccncc2)cc1 [GW434756X] 120

Any idea what its IC50 is? The compound is "Fc1ccc(-c2nn3c(OCC(F)(F)F)cccc3c2-c2ccncc2)cc1" 70
